Origin of measurements: patent US12492188B2

target: human TLR9 (Homo sapiens); construct: host or cells: HEK-Blue cells (HEK293-derived reporter line); assay: TLR9 inhibition reporter assay (HEK-Blue cells, secreted embryonic alkaline phosphatase reporter); type: cell-based; settings: HEK-Blue cells overexpressing human TLR9, stimulated with ODN2006 5 nM; read-out: TLR 9 IC50
assay-readout: IC50 (nM)

Recorded IC50, per entry:
- Cc1cc(-c2ccc(CN3CC4(C3)CN(C(C)C)C4)cc2)cc2c1nc(-c1ccc(S(C)(=O)=O)cc1)n2C: 97
- Cn1c(-c2ccc(S(C)(=O)=O)cc2)nc2cc(C3CCN(C4CC5CCC(C4)N5C4CCC4)CC3)cc(F)c21 (single isomer, unassigned) [Example 215]: 70

(A) Cn1c(-c2ccc(S(C)(=O)=O)cc2)nc2cc(C3CCN(C4CC5CCC(C4)N5CC4CC4)CC3)cc(F)c21 (stereo not shown) [Example 217]
(B) Cc1cc(C2CCN(C3CC4CCC(C3)N4CC3CC3)CC2)cc2c1nc(-c1ccc(S(C)(=O)=O)c(F)c1)n2C (stereo not shown) [Example 340]
Prompt: Please indicate which entry, A or B , has the lower recorded IC50 value. Please reply using the label of the selected record.
Response: B
(B: 84 nM, A: 125 nM)

---

Molecular target: human TLR7 (Homo sapiens, UniProt Q9NYK1)
Sequence (Q9NYK1 27-1049): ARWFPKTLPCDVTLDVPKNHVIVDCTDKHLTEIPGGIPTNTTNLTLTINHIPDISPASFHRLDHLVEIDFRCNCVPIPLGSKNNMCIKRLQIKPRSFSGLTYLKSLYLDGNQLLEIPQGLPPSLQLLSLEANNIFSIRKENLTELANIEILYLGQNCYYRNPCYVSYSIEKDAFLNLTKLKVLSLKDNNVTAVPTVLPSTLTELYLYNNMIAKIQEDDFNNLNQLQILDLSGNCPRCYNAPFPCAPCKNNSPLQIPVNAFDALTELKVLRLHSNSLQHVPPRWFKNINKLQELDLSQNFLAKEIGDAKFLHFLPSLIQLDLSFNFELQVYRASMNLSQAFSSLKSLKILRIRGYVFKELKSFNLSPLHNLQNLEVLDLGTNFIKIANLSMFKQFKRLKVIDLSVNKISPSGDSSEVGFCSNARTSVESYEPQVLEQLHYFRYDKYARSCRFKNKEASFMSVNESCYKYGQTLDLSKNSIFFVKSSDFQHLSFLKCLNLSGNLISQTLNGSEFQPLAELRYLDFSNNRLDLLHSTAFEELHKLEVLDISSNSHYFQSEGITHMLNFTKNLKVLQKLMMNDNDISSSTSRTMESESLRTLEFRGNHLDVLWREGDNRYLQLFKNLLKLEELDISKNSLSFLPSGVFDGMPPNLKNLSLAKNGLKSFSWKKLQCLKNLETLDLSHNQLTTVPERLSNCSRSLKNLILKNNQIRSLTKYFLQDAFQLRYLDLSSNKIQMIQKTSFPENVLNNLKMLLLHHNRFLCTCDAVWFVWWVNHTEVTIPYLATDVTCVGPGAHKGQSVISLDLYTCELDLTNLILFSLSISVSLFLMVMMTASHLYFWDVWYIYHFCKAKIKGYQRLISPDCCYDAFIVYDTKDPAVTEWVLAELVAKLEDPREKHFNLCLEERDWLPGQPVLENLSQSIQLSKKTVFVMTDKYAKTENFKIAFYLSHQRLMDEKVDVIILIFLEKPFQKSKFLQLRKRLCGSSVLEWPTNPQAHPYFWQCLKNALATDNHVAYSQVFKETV
Experiment: TLR7 inhibition reporter assay (HEK-Blue cells, secreted embryonic alkaline phosphatase reporter)
Details: HEK-Blue cells overexpressing human TLR7, stimulated with gardiquimod 7.5 μM; read-out: TLR 7 IC50
pIC50: −log10 of the molar value.
assay-readout: pIC50

• COc1ccc(-c2nc3c(C)cc(C4CCN(C5CCN(CC(C)C)CC5)CC4)cc3[nH]2)cc1F = 5.49
• COCCN1CCCC(N2CCC(c3cc(C)c4nc(-c5ccc(S(C)(=O)=O)cc5)n(C)c4c3)CC2)CC1 (single isomer, unassigned) [Example 308] = 5.59

---

target: human TLR9 (Homo sapiens, UniProt Q9NR96); construct: host or cells: HEK-Blue cells (HEK293-derived reporter line); assay: TLR9 inhibition reporter assay (HEK-Blue cells, secreted embryonic alkaline phosphatase reporter); assay type: cell-based; settings: HEK-Blue cells overexpressing human TLR9, stimulated with ODN2006 5 nM; read-out: TLR 9 IC50
assay-readout: IC50 (nM)

Recorded IC50, per entry:
- CN(C)C1CCN(Cc2ccc(-c3ccc4nc(-c5ccccc5S(C)(=O)=O)n(C)c4c3)cc2)CC1: 98
- CC(C)CN1C2CCC1CC(N1CCC(c3cc(F)c4nc(-c5ccc(S(C)(=O)=O)cc5)n(C5CC5)c4c3)CC1)C2 (single isomer, unassigned) [Example 322]: 12
- Cc1cc(C2CCN(C3CCN(CC(C)C)CC3)CC2)cc2[nH]c(-c3nccs3)nc12: 111

(a) Cc1c(C2CCN(C3CCN(C(C)C)CC3)CC2)ccc2nc(-c3ccc(S(C)(=O)=O)cc3)n(C)c12
(b) Cn1c(-c2ccc(S(C)(=O)=O)cc2)nc2c(F)c(C3CCN(C4CCN(C5CC5)CC4)CC3)ccc21
Prompt: Please indicate which entry, a or b , has the lower recorded IC50 value. Please reply using the label of the selected record.
Response: b

(A) Cc1cc(C2CCN(C3CC4CCC(C3)N4C3CC3)CC2)cc2c1nc(-c1ccc(S(C)(=O)=O)c(F)c1)n2C (stereo not shown)
(B) CC(C)N1CCC(N2CCC(c3ccc4c(nc(-c5ccc(S(C)(=O)=O)cc5)n4C)c3F)CC2)CC1
(C) Cn1c(-c2ccc(S(C)(=O)=O)cc2)nc2ccc(C3CCN(C4CC5CCC(C4)N5C4COC4)CC3)c(F)c21 (stereo not shown) [Example 272]
(D) Cc1c(C2CCN(C3CCN(CC(C)C)CC3)CC2)ccc2nc(-c3ccc(S(C)(=O)=O)cc3)n(C)c12
Prompt: Put the items in sequence by IC50, from largest down. Please list the labels in the order you were asked to rank them.
Response: D, C, B, A
(D: 1390 nM, C: 600 nM, B: 363 nM, A: 132 nM)

---

Molecular target: human TLR9 (Homo sapiens, UniProt Q9NR96)
Construct: host or cells: HEK-Blue cells (HEK293-derived reporter line)
Sequence (Q9NR96 26-1032): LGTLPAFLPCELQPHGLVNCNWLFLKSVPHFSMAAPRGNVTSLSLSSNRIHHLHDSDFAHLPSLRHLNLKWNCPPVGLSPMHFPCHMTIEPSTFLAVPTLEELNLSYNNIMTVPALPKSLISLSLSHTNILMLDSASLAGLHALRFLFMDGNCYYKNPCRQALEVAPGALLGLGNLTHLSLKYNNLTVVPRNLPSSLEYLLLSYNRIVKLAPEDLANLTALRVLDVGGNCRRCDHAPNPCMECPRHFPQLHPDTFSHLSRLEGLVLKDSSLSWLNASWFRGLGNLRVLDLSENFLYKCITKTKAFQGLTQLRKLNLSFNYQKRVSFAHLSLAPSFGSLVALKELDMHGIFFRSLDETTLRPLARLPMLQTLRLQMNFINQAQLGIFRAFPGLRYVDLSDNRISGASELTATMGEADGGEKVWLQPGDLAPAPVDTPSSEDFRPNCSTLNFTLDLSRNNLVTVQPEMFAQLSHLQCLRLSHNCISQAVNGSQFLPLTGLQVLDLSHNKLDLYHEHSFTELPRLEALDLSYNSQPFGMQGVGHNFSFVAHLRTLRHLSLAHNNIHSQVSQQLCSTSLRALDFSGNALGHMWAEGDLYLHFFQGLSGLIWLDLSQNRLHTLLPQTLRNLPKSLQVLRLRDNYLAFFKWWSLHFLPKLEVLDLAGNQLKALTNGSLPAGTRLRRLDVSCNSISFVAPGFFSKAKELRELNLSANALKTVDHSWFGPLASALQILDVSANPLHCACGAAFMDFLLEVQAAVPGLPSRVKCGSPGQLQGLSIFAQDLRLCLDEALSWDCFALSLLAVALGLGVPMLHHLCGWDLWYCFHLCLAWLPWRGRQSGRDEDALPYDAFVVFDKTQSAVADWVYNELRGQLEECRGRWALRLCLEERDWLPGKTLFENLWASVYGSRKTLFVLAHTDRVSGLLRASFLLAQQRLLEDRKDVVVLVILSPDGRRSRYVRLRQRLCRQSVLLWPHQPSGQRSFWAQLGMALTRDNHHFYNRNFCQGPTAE
Test: TLR9 inhibition reporter assay (HEK-Blue cells, secreted embryonic alkaline phosphatase reporter)
Type: cell-based
Conditions: HEK-Blue cells overexpressing human TLR9, stimulated with ODN2006 5 nM; read-out: TLR 9 IC50
pIC50: −log10 of the molar value.
assay-readout: pIC50

(a) COc1ccc(-c2nc3c(C)cc(C4CCN(C5CC6CCC(C5)N6C5COC5)CC4)cc3n2C)cc1OC (single isomer, unassigned) [Example 164]
(b) Cn1c(-c2ccc(S(C)(=O)=O)cc2)nc2ccc(C3CCN(C4CC5CCC(C4)N5CC4CC4)CC3)c(F)c21 (stereo not shown) [Example 268]
(c) COCCN1CCCC(N2CCC(c3cc(C)c4nc(-c5ccc(S(C)(=O)=O)cc5)n(C)c4c3)CC2)CC1 (single isomer, unassigned) [Example 309]
Prompt: Rank the listed molecules according to pIC50, from the largest value downward. Please list the labels in the order you were asked to rank them.
Response: c, b, a
